# Measurement Target: Ephrin type-B receptor 4 (Homo sapiens)
# Protocol Notes: Enzymatic radiometric [Km ATP] KinaseProfiler LeadHunter assay, kinase: EphB4, catalogue number: 14-554KP The assay has been performed by Eurofins Discovery.
# Experimental Parameters: ATP concentration 10.0 uM, Test compound concentration 10.0 uM
Give Activity for every item shown.
Numbers only, in %.

Sample answers from the record:
Cc1nn(C)cc1-c1cc2c(N[C@H](c3ccc4c(c3)S(=O)(=O)CCC4)C(C)C)ncnc2[nH]1    98
COc1ccc([C@@H](Cc2nnn[nH]2)NC(=O)c2ncnc3[nH]ccc23)cc1    88
CC(C)[C@@H](Nc1ncnc2[nH]c(C(=O)N[C@@H]3CCN(C)C3)cc12)c1ccc2c(c1)S(=O)(=O)CCC2    86
CNCc1cc(-c2cc3c(N[C@@H](c4ccc5c(c4)S(=O)(=O)CCC5)C(C)C)ncnc3[nH]2)co1    92
CC(C)[C@H](Nc1ncnc2[nH]c(-c3cnn(C)c3C#N)cc12)c1ccc2c(n1)OCCO2    89

Go through the items and report each one's Activity.
1. C[C@H](C(=O)O)[C@@H](NC(=O)c1ncnc2[nH]ccc12)c1ccc(Br)cc1
2. CC(C)[C@H](Nc1ncnc2[nH]ccc12)c1ccc2c(c1)S(=O)(=O)CCC2
3. CC(C)[C@@H](Nc1ncnc2[nH]ccc12)c1ccc2c(c1)S(=O)(=O)CCC2
4. COc1ccc([C@H](Cc2nnn[nH]2)NC(=O)c2ncnc3[nH]ccc23)cc1

Given back:
1: 105; 2: 86; 3: 91; 4: 106

Go through the items and report each one's Activity.
1. Cn1ncc(-c2cc3c(N[C@@H](c4ccc5c(n4)OCCO5)C(C)(C)C)ncnc3[nH]2)c1C#N
2. CNC(=O)Cn1cc(-c2cc3c(N[C@@H](c4ccc5c(c4)S(=O)(=O)CCC5)C(C)C)ncnc3[nH]2)cn1

Given back:
[115, 97]

* * *

# Measurement Target: 5'-AMP-activated protein kinase catalytic subunit alpha-1 (Homo sapiens) (UniProt Q13131)
# Sequence (Q13131 whole entry, looked up): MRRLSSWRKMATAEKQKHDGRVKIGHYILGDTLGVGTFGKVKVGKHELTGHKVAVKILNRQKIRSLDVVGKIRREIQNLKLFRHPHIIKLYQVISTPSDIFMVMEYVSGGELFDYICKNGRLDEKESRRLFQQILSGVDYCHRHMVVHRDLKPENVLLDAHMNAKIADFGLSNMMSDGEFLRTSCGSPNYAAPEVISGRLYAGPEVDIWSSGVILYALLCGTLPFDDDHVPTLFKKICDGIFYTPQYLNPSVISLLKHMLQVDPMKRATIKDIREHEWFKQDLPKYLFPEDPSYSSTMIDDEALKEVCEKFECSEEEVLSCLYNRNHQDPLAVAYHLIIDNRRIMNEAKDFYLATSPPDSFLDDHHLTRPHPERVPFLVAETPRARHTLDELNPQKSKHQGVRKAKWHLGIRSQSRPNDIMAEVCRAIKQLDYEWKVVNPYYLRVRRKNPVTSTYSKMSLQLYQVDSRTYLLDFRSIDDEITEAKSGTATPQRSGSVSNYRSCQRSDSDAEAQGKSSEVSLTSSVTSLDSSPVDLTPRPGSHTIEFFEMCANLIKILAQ
# Protocol Notes: Enzymatic radiometric [Km ATP] KinaseProfiler LeadHunter assay, kinase: AMPK-alpha1, catalogue number: 14-840KP The assay has been performed by Eurofins Discovery.
# Experimental Parameters: ATP concentration 45.0 uM, Test compound concentration 10.0 uM
Property Name: Activity (%)
Numbers only, in %.

Sample answers from the record:
Cc1nn(C)cc1-c1cc2c(N[C@H](c3ccc4c(c3)S(=O)(=O)CCC4)C(C)C)ncnc2[nH]1    102
CC(C)[C@H](Nc1ncnc2[nH]ccc12)c1ccc2c(c1)S(=O)(=O)CCC2    104
COc1ccc([C@H](Cc2nnn[nH]2)NC(=O)c2ncnc3[nH]ccc23)cc1    97

Go through the items and report each one's Activity.
1. CNC(=O)Cn1cc(-c2cc3c(N[C@@H](c4ccc5c(c4)S(=O)(=O)CCC5)C(C)C)ncnc3[nH]2)cn1
2. Cn1ncc(-c2cc3c(N[C@@H](c4ccc5c(n4)OCCO5)C(C)(C)C)ncnc3[nH]2)c1C#N
3. C[C@H](C(=O)O)[C@@H](NC(=O)c1ncnc2[nH]ccc12)c1ccc(Br)cc1

Given back:
1. 104
2. 109
3. 93

Go through the items and report each one's Activity.
1. CC(C)[C@@H](Nc1ncnc2[nH]c(C(=O)N[C@@H]3CCN(C)C3)cc12)c1ccc2c(c1)S(=O)(=O)CCC2
2. CC(C)[C@H](Nc1ncnc2[nH]c(-c3cnn(C)c3C#N)cc12)c1ccc2c(n1)OCCO2
3. COc1ccc([C@@H](Cc2nnn[nH]2)NC(=O)c2ncnc3[nH]ccc23)cc1

Given back:
1. 107
2. 111
3. 101

Go through the items and report each one's Activity.
1. CNCc1cc(-c2cc3c(N[C@@H](c4ccc5c(c4)S(=O)(=O)CCC5)C(C)C)ncnc3[nH]2)co1
2. CC(C)[C@@H](Nc1ncnc2[nH]ccc12)c1ccc2c(c1)S(=O)(=O)CCC2

Given back:
1: 86; 2: 94
